Numbers sourced from ChEMBL document CHEMBL6182836.

This section presents compounds with their documented pIC50 values.
- system: Cholinesterase (Equus caballus)
- Sequence (P81908 whole entry): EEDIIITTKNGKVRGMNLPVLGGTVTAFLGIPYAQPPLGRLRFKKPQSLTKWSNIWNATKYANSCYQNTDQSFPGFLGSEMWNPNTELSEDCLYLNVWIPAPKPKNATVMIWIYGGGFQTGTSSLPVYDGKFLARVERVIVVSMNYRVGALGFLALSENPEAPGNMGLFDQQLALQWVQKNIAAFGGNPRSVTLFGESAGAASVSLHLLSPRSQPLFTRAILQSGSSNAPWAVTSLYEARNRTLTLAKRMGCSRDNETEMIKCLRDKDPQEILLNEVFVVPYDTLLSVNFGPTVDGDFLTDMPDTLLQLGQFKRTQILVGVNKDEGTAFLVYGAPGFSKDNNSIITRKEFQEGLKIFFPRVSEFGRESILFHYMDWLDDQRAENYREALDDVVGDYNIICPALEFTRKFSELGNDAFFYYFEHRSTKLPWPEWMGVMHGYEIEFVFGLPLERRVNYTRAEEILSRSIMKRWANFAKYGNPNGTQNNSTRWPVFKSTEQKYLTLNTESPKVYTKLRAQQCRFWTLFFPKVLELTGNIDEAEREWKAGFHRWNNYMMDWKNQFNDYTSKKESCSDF
pIC50 here: minus log base 10 of the concentration, concentration in moles per litre.

Sample answers from the record:
Form: item COc1ccc(C(C#N)N2CCN(CC(=O)Nc3c4c(nc5ccccc35)CCC4)CC2)cc1OC (racemic) ; test system Cholinesterase (Equus caballus); pIC50: 6.36

Measured pIC50 for this entry COc1cc(OC)cc(C(C#N)N2CCN(CC(=O)Nc3c4c(nc5ccccc35)CCC4)CC2)c1 (racemic) on Cholinesterase (Equus caballus): 6.16

I looked up COc1ccc(C(C#N)N2CCN(CC(=O)Nc3c4c(nc5ccccc35)CCC4)CC2)cc1 (racemic) and its pIC50 for Cholinesterase (Equus caballus) was 6.19

Given the compound COc1cccc(C(C#N)N2CCN(CC(=O)Nc3c4c(nc5ccccc35)CCC4)CC2)c1OC (racemic) and test system Cholinesterase (Equus caballus), the measured pIC50 is 6.51

Hey, Cholinesterase (Equus caballus) data for CN(C)c1ccc(C(C#N)N2CCN(CC(=O)Nc3c4c(nc5ccccc35)CCC4)CC2)cc1 (racemic) : pIC50 came out at 6.39

Case COc1ccc(C(C#N)N2CCN(CC(=O)Nc3c4c(nc5ccccc35)CCC4)CC2)c(OC)c1 (racemic) , Cholinesterase (Equus caballus), pIC50 recorded as 6.04

Next compound, pIC50 to be filled in.
Summary: COc1ccc(OC)c(C(C#N)N2CCN(CC(=O)Nc3c4c(nc5ccccc35)CCC4)CC2)c1 (racemic) , Cholinesterase (Equus caballus), pIC50 = 5.76

----------
- experiment.description: Stability in human plasma assessed as compound remaining at 200 uM incubated for 240 mins by HPLC-UV analysis
- Format: ADME, cell-free
- measurement.conditions: read-out: Stability
assay.endpoint: remaining at 4 h, 200 µM (%)
The reply should be a number in %, with the unit left off.

Entry COc1cccc(C(C#N)N2CCN(CC(=O)Nc3c4c(nc5ccccc35)CCC4)CC2)c1OC (racemic) — recorded remaining at 4 h, 200 µM = 52.4

----------
- experiment.description: Stability in human plasma at pH 7.4 assessed as half life at 200 uM measured up to 240 mins by HPLC-UV analysis
- Type: ADME, cell-free
assay.endpoint: half-life at 200 µM (h)
Could you give me the number in h? Just the number is fine.

response.value for COc1cccc(C(C#N)N2CCN(CC(=O)Nc3c4c(nc5ccccc35)CCC4)CC2)c1OC (racemic) (field: half-life at 200 µM) = 4.8

----------
- experiment.description: Neurotoxicity in Wistar rat primary cortical neurons assessed as cell viability at 0.001 to 100 uM incubated for 24 hrs by LDH assay
- Assay type: toxicity, cell-based
- measurement.conditions: cortical neurone, dose 0.001-100 µM
assay.endpoint: Activity

Sample records with Activity:
Looking up COc1ccc(C(C#N)N2CCN(CC(=O)Nc3c4c(nc5ccccc35)CCC4)CC2)c(OC)c1 (racemic) , I found its Activity recorded as Non-toxic

Reported Activity ( COc1ccc(C(C#N)N2CCN(CC(=O)Nc3c4c(nc5ccccc35)CCC4)CC2)cc1 (racemic) ) = Non-toxic

Memo: COc1cc(OC)cc(C(C#N)N2CCN(CC(=O)Nc3c4c(nc5ccccc35)CCC4)CC2)c1 (racemic) , reported Activity: Non-toxic

The molecule listed as CN(C)c1ccc(C(C#N)N2CCN(CC(=O)Nc3c4c(nc5ccccc35)CCC4)CC2)cc1 (racemic) shows Activity equal to Non-toxic

Lab note: measured Activity of COc1ccc(C(C#N)N2CCN(CC(=O)Nc3c4c(nc5ccccc35)CCC4)CC2)cc1OC (racemic) was Non-toxic

More entries:
Sample COc1ccc(OC)c(C(C#N)N2CCN(CC(=O)Nc3c4c(nc5ccccc35)CCC4)CC2)c1 (racemic) ; Activity observed: Non-toxic

Recorded result, COc1cccc(C(C#N)N2CCN(CC(=O)Nc3c4c(nc5ccccc35)CCC4)CC2)c1OC (racemic) , Activity: Non-toxic

----------
Reported IC50 values are given for each entry in this list.
- system: Acetylcholinesterase (Electrophorus electricus)
- Sequence (O42275 whole entry): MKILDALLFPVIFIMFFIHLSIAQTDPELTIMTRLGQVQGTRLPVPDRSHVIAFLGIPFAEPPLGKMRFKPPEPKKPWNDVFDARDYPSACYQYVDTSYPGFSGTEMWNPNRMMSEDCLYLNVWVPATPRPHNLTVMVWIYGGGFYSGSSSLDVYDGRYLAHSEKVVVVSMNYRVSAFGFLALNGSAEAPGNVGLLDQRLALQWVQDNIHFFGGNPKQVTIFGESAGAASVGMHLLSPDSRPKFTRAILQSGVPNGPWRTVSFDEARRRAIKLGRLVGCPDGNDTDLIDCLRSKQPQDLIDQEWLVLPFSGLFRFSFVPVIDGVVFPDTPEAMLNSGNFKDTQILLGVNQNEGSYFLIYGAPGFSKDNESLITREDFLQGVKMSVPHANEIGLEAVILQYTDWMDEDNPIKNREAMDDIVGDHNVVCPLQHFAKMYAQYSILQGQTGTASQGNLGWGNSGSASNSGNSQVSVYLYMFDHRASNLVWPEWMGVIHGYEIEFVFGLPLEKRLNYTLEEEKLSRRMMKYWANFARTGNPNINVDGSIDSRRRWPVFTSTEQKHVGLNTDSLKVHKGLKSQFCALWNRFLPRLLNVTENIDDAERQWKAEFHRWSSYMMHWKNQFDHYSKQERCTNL
- experiment.description: Inhibition of electric eel AChE using acetylthiocholine iodide as substrate measured for 30 mins by Ellman's method
- measurement.conditions: read-out: IC50
Kindly answer with a numeric value in nM, unit omitted.

Sure, the documented IC50 for CN(C)c1ccc(C(C#N)N2CCN(CC(=O)Nc3c4c(nc5ccccc35)CCC4)CC2)cc1 (racemic) is 480

Further cases:
IC50 in this record for COc1cccc(C(C#N)N2CCN(CC(=O)Nc3c4c(nc5ccccc35)CCC4)CC2)c1OC (racemic) : 440

----------
Parameter: IC50 at 24 h. Scope: all listed entries.
- experiment.description: Neurotoxicity in Wistar rat primary cortical neurons assessed as inhibition of cell viability incubated for 24 hrs by LDH assay
- Assay type: toxicity, cell-based, Cortical neurone
- measurement.conditions: Wistar, primary cortical neurons
Please state the figure in µM; there is no need to write the unit.

Guide cases for IC50 at 24 h, answers given:
Measured IC50 at 24 h, COc1ccc(OC)c(C(C#N)N2CCN(CC(=O)Nc3c4c(nc5ccccc35)CCC4)CC2)c1 (racemic) : 427

Measured IC50 at 24 h of CN(C)c1ccc(C(C#N)N2CCN(CC(=O)Nc3c4c(nc5ccccc35)CCC4)CC2)cc1 (racemic) : 218

Reported IC50 at 24 h of COc1ccc(C(C#N)N2CCN(CC(=O)Nc3c4c(nc5ccccc35)CCC4)CC2)cc1 (racemic) : 436

Form: compound = COc1cc(OC)cc(C(C#N)N2CCN(CC(=O)Nc3c4c(nc5ccccc35)CCC4)CC2)c1 (racemic) ; IC50 at 24 h = 298

New cases:
For this compound ( COc1ccc(C(C#N)N2CCN(CC(=O)Nc3c4c(nc5ccccc35)CCC4)CC2)c(OC)c1 (racemic) ), measured IC50 at 24 h is 364

The compound listed as COc1ccc(C(C#N)N2CCN(CC(=O)Nc3c4c(nc5ccccc35)CCC4)CC2)cc1OC (racemic) has a reported IC50 at 24 h of 260

GET /value?item= COc1cccc(C(C#N)N2CCN(CC(=O)Nc3c4c(nc5ccccc35)CCC4)CC2)c1OC (racemic) &field=IC50 at 24 h returns 476

Documented IC50 at 24 h of CC12CC3CC(C)(C1)CC(N)(C3)C2 [MEMANTINE] : 272

----------
- experiment.description: Cytotoxicity against human HepG2 cells assessed as fold decrease in GI50 incubated for 24 hrs by SRB assay relative to tacrine
- Type: toxicity, cell-based
- measurement.conditions: read-out: RatioGI50
assay.endpoint: selectivity ratio at 24 h
// no unit, no text: just the number

Form field selectivity ratio at 24 h, entry COc1cccc(C(C#N)N2CCN(CC(=O)Nc3c4c(nc5ccccc35)CCC4)CC2)c1OC (racemic) : 8

----------
- experiment.description: in vitro
- measurement.conditions: human, HepG2 cells
- Description: Cytotoxicity against human HepG2 cells assessed as inhibition of cell growth incubated for 24 hrs by SRB assay
assay.endpoint: GI50 at 24 h (µM)
Output spec: scalar in µM, unitless text.

So, COc1cccc(C(C#N)N2CCN(CC(=O)Nc3c4c(nc5ccccc35)CCC4)CC2)c1OC (racemic) ? Its GI50 at 24 h was 93.5
